compounds and their reported EC50
test system: HIV-1 BH10 W.T.; assay: Anti-HIV-1 BH10 W.T. activity in presence of HS or AAG; type: cell-based; settings: Human immunodeficiency virus 1; Table 19; AAG 1 mg/ml; read-out: Average EC50 Values ± Standard Deviation, 10% Fetal Bovine Serum + AAG
Field: numeric (nM). Do not append units.

CO[P@](=O)(c1cc(C)cc(/C=C/C#N)c1)c1c(C(N)=O)[nH]c2ccc(Cl)cc12; 2.8

Fill in the blank: the reported EC50 of O=C1Nc2ccc(Cl)cc2C(C#CC2CC2)(C(F)(F)F)O1 (centres unmarked) [EFV, reference compound] is ____. 5

====

test: In vivo pharmacokinetics, monkeys; parameters: species or system monkey; conditions: female, monkey, in vivo, po, 5 mg/kg, Monkey, 5 mg/kg PO-Fed, 3F (females); read-out: BA (absolute oral bioavailability)
Parameter: bioavailability (%)
Give just the numeric value; % need not be written.

Endpoint output: bioavailability of CO[P@](=O)(c1cc(C)cc(/C=C/C#N)c1)c1c(C(N)=O)[nH]c2ccc(Cl)c(F)c12 [Compound I] . Value? 61

====

biological target: HIV-1 RT M184V mutant enzyme (Human immunodeficiency virus type 1 group M subtype B, UniProt P03366, M783V); construct: Antiviral in vitro activity against site-directed mutant HIV-1 RT enzymes; experiment: biochemical
Attribute: IC50

CO[P@](=O)(c1cc(C)cc(/C=C/C#N)c1)c1c(C(N)=O)[nH]c2ccc(Cl)c(F)c12; 290 nM

Consider the molecule shown here: `CO[P@](=O)(c1cc(C)cc(/C=C/C#N)c1)c1c(C(N)=O)[nH]c2ccc(Cl)cc12` What is its recorded IC50? 170 nM

====

assay: In vivo pharmacokinetics, monkeys; parameters: species or system monkey; conditions: male, monkey, plasma, po, 5 mg/kg, 5 mg/kg PO-Fed, males (3M or 2M), mean
Parameter: Tmax (h)
Note: unit h is implicit; provide only the numeric part.

Which Tmax is reported for this compound? `CO[P@](=O)(c1cc(C)cc(/C=C/C#N)c1)c1c(C(N)=O)[nH]c2ccc(Cl)cc12` 3

====

test system: HIV-1 W.T. strains BH10, NL4-3 and IIIB; test: Drug susceptibility assays, 3 W.T. strains in 5 human cell lines (ranges); format: cell-based; conditions: Human immunodeficiency virus 1, read-out: EC50 range, 3 HIV-1 viral strains in 5 host human cell lines
Parameter: EC50

Could you share which EC50 value was measured for CO[P@](=O)(c1cc(C)cc(/C=C/C#N)c1)c1c(C(N)=O)[nH]c2ccc(Cl)c(F)c12 [Compound I] ? 0.5 to 2 nM

====

biological target: CYP2C9 (Homo sapiens); assay: Human liver microsomal CYP450 inhibition, CYP2C9
Sequence (P11712 whole entry): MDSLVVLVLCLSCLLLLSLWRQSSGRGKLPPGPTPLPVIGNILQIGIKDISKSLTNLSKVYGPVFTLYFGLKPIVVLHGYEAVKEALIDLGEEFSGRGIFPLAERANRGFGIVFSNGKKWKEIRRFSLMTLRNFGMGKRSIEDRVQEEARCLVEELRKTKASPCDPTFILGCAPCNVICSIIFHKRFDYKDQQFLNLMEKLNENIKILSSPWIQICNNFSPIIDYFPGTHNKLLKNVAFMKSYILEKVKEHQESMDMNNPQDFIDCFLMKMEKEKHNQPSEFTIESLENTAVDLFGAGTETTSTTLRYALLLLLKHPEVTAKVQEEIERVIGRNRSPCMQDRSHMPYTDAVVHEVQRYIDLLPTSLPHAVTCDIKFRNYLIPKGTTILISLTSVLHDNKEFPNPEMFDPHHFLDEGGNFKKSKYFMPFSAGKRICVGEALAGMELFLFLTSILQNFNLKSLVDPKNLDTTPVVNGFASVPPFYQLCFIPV
Parameter: Ki (µM)
Only the number, expressed in µM, is required.

CO[P@](=O)(c1cc(C)cc(/C=C/C#N)c1)c1c(C(N)=O)[nH]c2ccc(Cl)c(F)c12; 1.4

# next molecule below
Find the recorded Ki belonging to `CO[P@](=O)(c1cc(C)cc(/C=C/C#N)c1)c1c(C(N)=O)[nH]c2ccc(Cl)cc12` and report it. 0.93

====

target: human DNA polymerase gamma (Homo sapiens, UniProt P54098); assay: Human cellular DNA polymerase gamma assay; format: biochemical; conditions: Table 5; preliminary data from a single experiment; read-out: Average IC50 Values, DNA Pol Gamma
Sequence (P54098 whole entry): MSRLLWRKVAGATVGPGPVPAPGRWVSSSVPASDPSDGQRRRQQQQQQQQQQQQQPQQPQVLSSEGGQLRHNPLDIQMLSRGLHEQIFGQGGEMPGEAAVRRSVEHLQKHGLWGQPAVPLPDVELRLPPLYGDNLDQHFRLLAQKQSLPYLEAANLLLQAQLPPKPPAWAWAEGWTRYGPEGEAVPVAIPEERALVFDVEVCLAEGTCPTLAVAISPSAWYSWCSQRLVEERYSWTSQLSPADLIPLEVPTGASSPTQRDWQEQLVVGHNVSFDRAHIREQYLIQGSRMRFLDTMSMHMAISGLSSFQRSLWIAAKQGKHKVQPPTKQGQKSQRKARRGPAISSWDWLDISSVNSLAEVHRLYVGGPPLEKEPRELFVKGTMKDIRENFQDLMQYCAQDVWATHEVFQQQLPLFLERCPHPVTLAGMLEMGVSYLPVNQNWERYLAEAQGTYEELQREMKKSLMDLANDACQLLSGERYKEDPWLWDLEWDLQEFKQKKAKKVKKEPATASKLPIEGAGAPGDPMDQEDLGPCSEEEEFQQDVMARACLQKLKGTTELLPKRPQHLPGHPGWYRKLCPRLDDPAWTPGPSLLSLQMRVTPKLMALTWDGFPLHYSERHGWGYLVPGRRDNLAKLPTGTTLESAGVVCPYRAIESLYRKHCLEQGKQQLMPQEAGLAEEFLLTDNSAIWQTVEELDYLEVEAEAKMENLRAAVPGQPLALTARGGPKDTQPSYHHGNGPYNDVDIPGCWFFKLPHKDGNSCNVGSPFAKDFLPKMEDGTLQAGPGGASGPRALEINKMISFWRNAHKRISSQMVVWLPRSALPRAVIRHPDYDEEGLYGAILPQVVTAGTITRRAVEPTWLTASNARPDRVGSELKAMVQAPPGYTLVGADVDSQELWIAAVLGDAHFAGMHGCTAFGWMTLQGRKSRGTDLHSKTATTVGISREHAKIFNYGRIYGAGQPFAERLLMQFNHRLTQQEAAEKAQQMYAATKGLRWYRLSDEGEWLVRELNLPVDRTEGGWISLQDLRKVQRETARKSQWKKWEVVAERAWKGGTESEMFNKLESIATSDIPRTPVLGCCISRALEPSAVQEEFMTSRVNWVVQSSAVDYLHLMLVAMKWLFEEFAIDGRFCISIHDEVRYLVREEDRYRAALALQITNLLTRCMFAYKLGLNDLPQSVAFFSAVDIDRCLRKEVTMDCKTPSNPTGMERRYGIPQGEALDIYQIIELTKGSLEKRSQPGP
*1 amine or outer side, *2 acyl side, *3 side chain or, on linkers, in order; H or OH if unused. Where a SMILES comes first, the peptide text is derived from it. Bridges are numbered along the chain shown (N, C = ends). Roman numbers before positions name the chains, in order. [ ]: non-standard residue; d: D form. Actinocin(9to1) = Cc1c2oc3c(C)ccc(C(=O)[*:1])c3nc-2c(C(=O)[*:2])c(N)c1=O; NMeV = CN[C@H](C(=O)O)C(C)C; Sar = CNCC(=O)O
Parameter: pIC50
// field semantics: pIC50 = negative decimal log of concentration (mol/L)

O=C1Nc2ccc(Cl)cc2C(C#CC2CC2)(C(F)(F)F)O1 (centres unmarked) [EFV, reference compound]; 3.93

Turning now to a further compound:
Fill blank: measured pIC50 of the compound Cc1c2oc3c(C)ccc(C(=O)N[C@@H]4C(=O)N[C@H](C(C)C)C(=O)N5CCC[C@H]5C(=O)N(C)CC(=O)N(C)[C@@H](C(C)C)C(=O)O[C@@H]4C)c3nc-2c(C(=O)N[C@@H]2C(=O)N[C@H](C(C)C)C(=O)N3CCC[C@H]3C(=O)N(C)CC(=O)N(C)[C@@H](C(C)C)C(=O)O[C@@H]2C)c(N)c1=O [Act. D, actinomycin D, reference compound] (I: T[dV]P[Sar][NMeV] / II: T[dV]P[Sar][NMeV]; ester I:1-I:C, II:1-II:C; linker I:N-II:N via Actinocin(9to1)) is ____. 4.77

# credit: patent US8486991B2
